measured.quantity: logP

// worked examples, logP included
compound	numeric.result
CCCC(C(N)=O)n1nnc2ccccc21 (stereo not drawn)	1.38
CC(C)(C(=O)O)n1nc2ccccc2n1	0.64
CCC(C(N)=O)n1nnc2ccccc21 (stereo not drawn)	0.88
CCCC(C(N)=O)n1nc2ccccc2n1 (stereo not drawn)	1.75

A: CC(CCC(N)=O)n1nc2ccccc2n1 (stereo not drawn)
B: CC(CCC(=O)O)n1nc2ccccc2n1 (stereo not drawn)
C: CC(C)(C(=O)O)n1nnc2ccccc21
D: c1ccc2nn(C3CCCCC3)nc2c1
Q: Please put the entries in order of rising logP. List the labels according to the requested ordering.
Result: C, B, A, D
(C: -0.2, B: 0.69, A: 1.35, D: 3.63)
